FYI, the data here is from the RNAGym collection of RNA variant scans (doi:10.1093/molbev/msab373).

B1: Azoarcus group I ribozyme (parent)
chain: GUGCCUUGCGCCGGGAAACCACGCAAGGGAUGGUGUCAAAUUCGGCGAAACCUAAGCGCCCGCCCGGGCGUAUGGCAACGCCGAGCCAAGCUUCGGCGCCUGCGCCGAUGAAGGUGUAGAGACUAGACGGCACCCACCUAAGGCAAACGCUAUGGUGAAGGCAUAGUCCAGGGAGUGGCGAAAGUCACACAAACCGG

Variants of: B1
assay: reverse-splicing fitness (ratio to wild type); higher = more active; in vitro selection; Mg2+ level not given
reported.metric: reverse-splicing fitness

{"variant": "C82A A111C A120G A145G C169U U176A", "reverse-splicing fitness": 0.0159}
{"variant": "C82G A120C A145G C150A U176A", "reverse-splicing fitness": 0.0196}
{"variant": "A111C A145C C150U C169U U176C", "reverse-splicing fitness": 0.0139}

As a next step, examine the variant that follows.
State the recorded reverse-splicing fitness for this entry: C82G A120C C150U C169G U176C
0.0162
